test: Metabolic stability in human liver microsomes assessed as compound metabolized at 5 uM after 15 mins; format: ADME, Microsome; conditions: read-out: Drug metabolism
Kindly return Yes if reported metabolised at 0.25 h, 5 µM is no lower than 30%; return No if it is lower.

>>> assigned_category("COc1ccc2c(c1)C[C@@H]1Cn3c-2c(C2CCCCC2)c2ccc(cc23)C(=O)NS(=O)(=O)N(C)CCOCCN(C)C1=O")
"Yes"

Query block: Does metabolised at 0.25 h, 5 µM meet or surpass 30% for CN1CCCCN(C)S(=O)(=O)NC(=O)c2ccc3c(C4CCCCC4)c4n(c3c2)CC(=Cc2ccc(Cl)cc2-4)C1=O ?
Result block: No

Query block: What about COc1ccc2c(c1)C=C1Cn3c-2c(C2CCCCC2)c2ccc(cc23)C(=O)NS(=O)(=O)N(C)CCOCCN(C)C1=O [TMC-647055] ?
Result block: Yes

Query block: What about COc1ccc2c(c1)C=C1Cn3c-2c(C2CCCCC2)c2ccc(cc23)C(=O)NS(=O)(=O)N(C)CCCCNC1=O ?
Result block: No

Query block: What about COc1ccc2c(c1)C=C1Cn3c-2c(C2CCCCC2)c2ccc(cc23)C(=O)NS(=O)(=O)N(C(C)C)CCCCN(C)C1=O ?
Result block: Yes

Query block: What about COc1ccc2c(c1)C=C1Cn3c-2c(C2CCCCC2)c2ccc(cc23)C(=O)NS(=O)(=O)N2CCN(CCNC1=O)CC2 ?
Result block: No

Query block: What about COc1ccc2c(c1)C=C1Cn3c-2c(C2CCCCC2)c2ccc(cc23)C(=O)NS(=O)(=O)N(C)CCCCCCN(C)C1=O ?
Result block: Yes

Query block: What about COc1ccc2c(c1)C1C[C@]13Cn1c-2c(C2CCCCC2)c2ccc(cc21)C(=O)NS(=O)(=O)N(C)CCOCCN(C)C3=O (stereo partly specified) ?
Result block: Yes

---

test: Selectivity index, ratio of CC50 for human Huh7 cells to EC50 for Hepatitic C virus genotype 1b clone ET; assay type: toxicity, cell-based, Huh-7; conditions: read-out: Ratio CC50/EC50
Hi there, I'd appreciate the recorded selectivity ratio for every entry that follows.

Batch request: selectivity ratio per item, same order as input.
1. COc1ccc2c(c1)C=C1Cn3c-2c(C2CCCCC2)c2ccc(cc23)C(=O)NS(=O)(=O)N(C(C)C)CCCCN(C)C1=O
2. COc1ccc2c(c1)C=C1Cn3c-2c(C2CCCCC2)c2ccc(cc23)C(=O)NS(=O)(=O)N(C)CCCCCCN(C)C1=O
3. COc1ccc2c(c1)C=C1Cn3c-2c(C2CCCCC2)c2ccc(cc23)C(=O)NS(=O)(=O)N(C)CCOCCN(C)C1=O [TMC-647055]
4. COc1ccc2c(c1)C=C1Cn3c-2c(C2CCCCC2)c2ccc(cc23)C(=O)NS(=O)(=O)N(C)CCCCNC1=O
5. COc1ccc2c(c1)C=C1Cn3c-2c(C2CCCCC2)c2ccc(cc23)C(=O)NS(=O)(=O)N(C)CCN2CCN(CC2)C1=O
6. COc1ccc2c(c1)C=C1Cn3c-2c(C2CCCCC2)c2ccc(cc23)C(=O)NS(=O)(=O)N(C)CCCN(C)C1=O
7. CN1CCOCCN(C)S(=O)(=O)NC(=O)c2ccc3c(C4CCCCC4)c4n(c3c2)CC(=Cc2cc(Cl)ccc2-4)C1=O
8. COc1ccc2c(c1)C=C1Cn3c-2c(C2CCCCC2)c2ccc(cc23)C(=O)NS(=O)(=O)N(C)CCCCCNC1=O

Result block:
> 100
150
> 300
> 40
> 170
72
150
> 400
